assay: qHTS of pediatric cancer cell lines to identify multiple opportunities for drug repurposing: Primary screen for A673 cells (AID 1347092); conditions: A673 Ewing sarcoma viability, CellTiter-Glo ATP luminescence, 48 h; series mostly up to 46 µM; further: nearly all actives have a fitted effect of over 45% in size
Inconclusive results are not listed. The source made the active and inactive calls. The call rests on the fitted dose curve; in most records, active means well fitted cell-killing curve with a large enough effect; inconclusive means small, poorly fitted or top-dose-only effect; inactive means no such curve, though single readings can be large or run the other way.
Permitted responses: active, inactive

Some solved entries appear below for comparison.
item_smiles=CC(=O)Oc1cccc2c1C(=O)c1c(OC(C)=O)cc(C(=O)O)cc1C2=O label_class=active
item_smiles=Nc1ccc(N=Nc2ccccc2)c(N)n1 label_class=inactive
item_smiles=O=C1c2ccccc2C(=O)c2c1ccc(O)c2O label_class=inactive

Okay, now this molecule:
Query: Each molecule tested received a call. Report the one for O=C(OCc1ccccc1)c1ccc(O)cc1 .
Result: inactive

====

Each entry below lists one item and its recorded activity change % (negative = inhibition) value.
target: Thyroid hormone receptor beta (Homo sapiens) (UniProt P10828); assay: qHTS assay for small molecule antagonists of thyroid hormone receptor beta signaling (AID 588547); conditions: TR-UAS-bla HEK293, beta-lactamase ratio, antagonist mode, 18 h;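 further: cells stimulated with 0.4 nM T3 agonist during compound exposure; on the % scale 0 is the no-effect control and ±100 the full control effect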
Sequence (P10828 whole entry, looked up): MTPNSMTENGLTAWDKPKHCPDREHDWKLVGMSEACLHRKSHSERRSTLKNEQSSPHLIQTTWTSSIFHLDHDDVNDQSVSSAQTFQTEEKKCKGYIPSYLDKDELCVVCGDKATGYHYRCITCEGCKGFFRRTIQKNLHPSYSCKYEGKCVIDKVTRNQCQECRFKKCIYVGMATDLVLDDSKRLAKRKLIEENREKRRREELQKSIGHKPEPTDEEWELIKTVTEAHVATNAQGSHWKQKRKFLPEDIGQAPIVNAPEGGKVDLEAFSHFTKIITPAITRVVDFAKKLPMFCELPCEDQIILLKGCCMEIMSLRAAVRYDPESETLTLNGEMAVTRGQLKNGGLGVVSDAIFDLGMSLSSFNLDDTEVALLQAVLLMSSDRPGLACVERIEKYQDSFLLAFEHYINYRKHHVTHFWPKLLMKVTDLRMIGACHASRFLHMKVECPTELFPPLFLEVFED
Inconclusive results are not listed.
Respond with the bare value in %.

Solved entries:
compound=CO[C@@H]1[C@H](OC(=O)/C=C/C=C/C=C/C=C/C(=O)O)CC[C@]2(CO2)[C@H]1[C@@]1(C)O[C@@H]1CC=C(C)C measured_number=15
compound=CO measured_number=0.348
compound=C[Si](C)(C)O[Si](C)(C)C measured_number=22.8
compound=CC1=CC(=O)NS(=O)(=O)O1 measured_number=2.81

Summary for this compound, Nc1nccs1 : activity change % (negative = inhibition) is 8.98

====

assay: Drug repurposing screens with cells derived from glioblastoma tumor samples (AID 1345199); conditions: GBM patient neurospheres viability, ATP luminescence, 48 h; at 46.1 µM (top of the series); tumour line C; further: on the % scale 0 is the no-effect control and ±100 the full control effect; nearly all actives have a fitted effect of over 40% in size
Records with an inconclusive call do not appear.
metric: activity, negative = cell killing (%)
Provide only the numeric value, understood in %.

Before answering, review these 5 worked examples.
molecule=O=P(O)(O)CP(=O)(O)O measured_number=-17.6
molecule=CC(C)[C@@H](N)C(=O)O measured_number=-0.187
molecule=NC(=O)[C@H]1O[C@@H](O)[C@H](O)[C@@H](O)[C@@H]1O measured_number=-23.5
molecule="CC1(C)S[C@@H]2[C@H](N3C(=O)C(c4ccccc4)NC3(C)C)C(=O)N2[C@H]1C(=O)O (some centres not stated)" measured_number=-5.2
molecule="CC1CC(O)CC(C)(C)C1 (configuration not stated)" measured_number=-22

Sample CC/C(=C(/CC)c1ccc(OP(=O)(O)O)cc1)c1ccc(OP(=O)(O)O)cc1 ; activity, negative = cell killing observed: -17.3

Short answer for NS(=O)(=O)c1cc2c(cc1Cl)NC(Cc1ccccc1)NS2(=O)=O (configuration not stated) : activity, negative = cell killing was 0.872

activity, negative = cell killing reported for this molecule O=C(OC[C@H]1O[C@](O)(COC(=O)c2cccnc2)[C@@H](OC(=O)c2cccnc2)[C@@H]1OC(=O)c1cccnc1)c1cccnc1 : -25.9

Looking up NCCCC[C@H](N)C(=O)O , I found its activity, negative = cell killing recorded as 9.67

Item: C=CC(=O)O | activity, negative = cell killing: -0.506

Field activity, negative = cell killing (entry OC/C=C/c1ccccc1 ) reads 8.18

Record CC(/C=C/C=C(\C)C(=O)O[C@@H]1O[C@H](CO[C@@H]2O[C@H](CO)[C@@H](O)[C@H](O)[C@H]2O)[C@@H](O)[C@H](O)[C@H]1O)=C\C=C\C=C(C)\C=C\C=C(/C)C(=O)O[C@@H]1O[C@H](CO[C@@H]2O[C@H](CO)[C@@H](O)[C@H](O)[C@H]2O)[C@@H](O)[C@H](O)[C@H]1O . Reported activity, negative = cell killing: 10.7

For Oc1cccc(O)c1O the molecule record lists activity, negative = cell killing as 15.2

For this molecule ( CN(CCO)CC(O)Cn1cnc2c1c(=O)n(C)c(=O)n2C (configuration not stated) (tested in a mixture with another compound) ), measured activity, negative = cell killing is -30

Measured activity, negative = cell killing, C[C@H](N)C(=O)N[C@@H](C)P(=O)(O)O : -19.1

Per the record, OCl has activity, negative = cell killing of -3.94

For reference, reported activity, negative = cell killing for C[Se]CC[C@H](N)C(=O)O stands at -22.8

Consider F[Si-2](F)(F)(F)(F)F . Its measured activity, negative = cell killing is 30.2

The value of activity, negative = cell killing measured for the molecule O.O.O.O.O.O.O.O=S(=O)([O-])[O-].[Co+2] turned out to be 10.4

Lab note: COc1ccc(-c2noc(CC(=O)O)c2-c2ccc(OC)cc2)cc1 gave activity, negative = cell killing of -18

Looking up OC[C@H]1O[C@@](CO)(O[C@H]2O[C@H](CO)[C@@H](O)[C@H](O)[C@H]2O)[C@@H](O)[C@@H]1O , I found its activity, negative = cell killing recorded as -22.3

In plain terms, O=P(O)(O)OP(=O)(O)O has a documented activity, negative = cell killing of -5.23
